Where do the numbers come from? From ChEMBL document CHEMBL4007456.

- Tested on: Acinetobacter baumannii
- experimental-protocol: Antibacterial activity against gram-negative Acinetobacter baumannii AB250 by CLSI method
- Assay type: functional
readout-name: MIC (µg/mL)
Your answer is read as µg/mL, so omit the unit and give the number.

q: Provide the documented MIC with Acinetobacter baumannii as the system for CC1CCN(C)C1c1cc(O)c2c(c1C(F)(F)F)C[C@H]1C[C@H]3[C@H](N(C)C)C(O)=C(C(N)=O)C(=O)[C@@]3(O)C(O)=C1C2=O (stereo partly specified)
a: 8

q: Provide the documented MIC with Acinetobacter baumannii as the system for `CN(C)[C@@H]1C(O)=C(C(N)=O)C(=O)[C@@]2(O)C(O)=C3C(=O)c4c(O)cc([C@@H]5CCCN5)c(C(F)(F)F)c4C[C@H]3C[C@@H]12`
a: 2

q: Provide the documented MIC with Acinetobacter baumannii as the system for CN(C)[C@@H]1C(O)=C(C(N)=O)C(=O)[C@@]2(O)C(O)=C3C(=O)c4c(O)cc(C5CCCN5)c(OC(F)(F)F)c4C[C@H]3C[C@@H]12 (stereo partly specified)
a: 2
